Target: HLA-A*0201 (human)
Experiment: competition with 125I-labelled standard peptide for purified HLA, gel filtration
Details: scale: ratio
METRIC: binding affinity ratio
Simply state the number, no unit and no words.

[Q] Param item = LLRLSEPAEL (modifications not checked) [… (PSA, position 119, 10 amino acids)] ; retrieve measured binding affinity ratio.
[A] 0.0001

[Q] Dear colleague, I am looking for the recorded binding affinity ratio of the following binder: LLHETDSAVA (modifications not checked) [… (PSM, position 4, 10 amino acids)]
[A] 0.0006
